- targetOrTestSystem: recombinant sEH (Homo sapiens, UniProt P34913)
- experimentDescription: biochemical screening assay for inhibition of soluble epoxide hydrolase (fluorometric, Phome substrate)
pIC50: −log10 of the molar value. Structures can show the parent of a compound that is named as a salt.
readout: pIC50

{"compound": "CN(C)C[C@H]1CO[C@H]2[C@@H]1OC[C@@H]2NC(=O)NC1CCCCC1 [Example 9, trifluoroacetate]", "readout": "pIC50", "measurement": 6.35}

1: Cc1ncccc1O[C@H]1CO[C@H]2[C@@H]1OC[C@@H]2NC(=O)NC(C)CN1CCCC1=O (stereo partly shown)
2: CC(=O)Nc1ccc(O[C@H]2CO[C@H]3[C@@H]2OC[C@@H]3NC(=O)NC2CCCCC2)cc1
Q: When the recorded pIC50 values are compared, which is smaller: that of 1 or that of 2 ? // respond with label for picked entry
A: 1
(1: 6.24, 2: 8.52)

---

- targetOrTestSystem: recombinant sEH (Homo sapiens)
- experimentDescription: biochemical screening assay for inhibition of soluble epoxide hydrolase (fluorometric, Phome substrate)
pIC50: −log10 of the molar value.
readout: pIC50

I: Cc1csc(CNC(=O)N[C@H]2CO[C@H]3[C@@H]2OC[C@@H]3Oc2cccnc2C)n1 [Example 199]
II: Cc1cc(C)nc(S[C@H]2CO[C@H]3[C@@H]2OC[C@@H]3NC(=O)NC2CCCCC2)n1 [Example 47]
Q: When the recorded pIC50 values are compared, which is smaller: that of I or that of II ? // respond with label for picked entry
A: I
(I: 5.68, II: 7.29)

---

- targetOrTestSystem: recombinant sEH (Homo sapiens)
- Sequence (P34913 1-555): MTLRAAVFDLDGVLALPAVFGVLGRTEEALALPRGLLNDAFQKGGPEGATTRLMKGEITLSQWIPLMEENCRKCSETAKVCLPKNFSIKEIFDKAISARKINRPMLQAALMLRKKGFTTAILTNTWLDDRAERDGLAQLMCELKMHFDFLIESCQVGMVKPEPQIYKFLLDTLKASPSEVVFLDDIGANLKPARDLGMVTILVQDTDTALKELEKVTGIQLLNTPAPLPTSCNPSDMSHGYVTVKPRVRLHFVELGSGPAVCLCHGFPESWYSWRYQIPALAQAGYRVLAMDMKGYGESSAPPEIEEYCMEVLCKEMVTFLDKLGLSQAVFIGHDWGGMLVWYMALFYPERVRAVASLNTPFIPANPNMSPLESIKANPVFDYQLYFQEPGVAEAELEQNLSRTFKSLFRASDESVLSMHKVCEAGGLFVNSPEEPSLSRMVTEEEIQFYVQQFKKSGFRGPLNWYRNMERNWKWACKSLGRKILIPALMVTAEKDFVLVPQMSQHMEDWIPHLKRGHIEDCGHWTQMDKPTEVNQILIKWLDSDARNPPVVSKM
- experimentDescription: biochemical screening assay for inhibition of soluble epoxide hydrolase (fluorometric, Phome substrate)
pIC50: −log10 of the molar value.
readout: pIC50

{"smilesData": "C[C@@H](NC(=O)N[C@H]1CO[C@H]2[C@@H]1OC[C@@H]2Oc1ccc(F)cc1)c1ccc(Cl)cc1", "pIC50": 7.74}
{"smilesData": "O=C(NC1CCCCC1)N[C@H]1CO[C@H]2[C@@H]1OC[C@@H]2Oc1cncc(Cl)c1", "pIC50": 8.52}
{"smilesData": "CC(C)(C)c1ccc(O[C@H]2CO[C@H]3[C@@H]2OC[C@@H]3NC(=O)NC2CCCCC2)cc1", "pIC50": 8.15}
{"smilesData": "O=C(NC1CCCCC1)N[C@H]1CO[C@H]2[C@@H]1OC[C@@H]2Oc1ccccc1F", "pIC50": 8.30}
{"smilesData": "Cc1ncccc1O[C@H]1CO[C@H]2[C@@H]1OC[C@@H]2NC(=O)N[C@@H]1CCCC[C@H]1C(C)(C)C", "pIC50": 6.95}

1: O=C(Nc1cccc(C(F)(F)F)c1)N[C@H]1CO[C@H]2[C@@H]1OC[C@@H]2C#Cc1ccccc1
2: O=C(NC1CCCCC1)N[C@H]1CO[C@H]2[C@@H]1OC[C@@H]2Nc1nccs1
Q: When the recorded pIC50 values are compared, which is smaller: that of 1 or that of 2 ? // respond with label for picked entry
A: 1
(1: 5.90, 2: 6.78)

Values compiled from patent US9540391B2.
